Test system: proteases in Pelophylax esculentus skin secretion
Assay type: in vitro ADME
Conditions: sample 1: aqueous P. esculentus skin secretion, HCl added to final concentration 1%; LC-HRMS; sum of intensities of all forms of the peptide = 100%; one frog per sample
Bridges are numbered along the chain shown (N, C = ends). Where no end group is shown, it is not given here.
QUANTITY KIND: Intact, % (%)
Give just the numeric value; % need not be written.

Study these solved cases before continuing.
[
  {
    "SUBSTANCE": "GXLSTLKNVAKTAGKGALQSLLNAASCKLSGQC-OH (disulfide) [Brev 2L, Brevinin 2L, natural disulfide skin peptide of Pelophylax esculentus, brevinin 2 family, 33 aa]",
    "Intact, % / %": 98.79
  },
  {
    "SUBSTANCE": "GIFSKLGRKKIKNLLISGLKNVGKEVGMDVVRTGIDIAGCKIKGEC (disulfide 40-46) [Escul 1, Esculentin 1]",
    "Intact, % / %": 38.61
  }
]

Problem: For the substance shown here, GXLDSLKNLAKNAAQILLNKASCKLSGQC-OH (disulfide) [Brev 2Rd, Brevinin 2Rd, natural disulfide skin peptide of Pelophylax esculentus, brevinin 2 family, 29 aa] , give the reported Intact, %.
Solution: 99.61

###

Examples of substances with documented Proteoforms, % follow.
Tested on: proteases in Pelophylax esculentus skin secretion
Type: in vitro ADME
Conditions: sample 2: CH3OH; sum of all proteolytic forms; LC-HRMS; all forms = 100%
Bridges are numbered along the chain shown (N, C = ends). Where no end group is shown, it is not given here.
Unit % implied. Number only.

[
  {
    "SUBSTANCE": "GIFSKLGRKKIKNLLISGLKNVGKEVGMDVVRTGIDIAGCKIKGEC (disulfide 40-46) [Escul 1, Esculentin 1]",
    "Proteoforms, %, %": 20.01
  },
  {
    "SUBSTANCE": "GXFSKXAGKKXKNLXISGXKSVGKEVGMDVVRTGIDIAGCKIKGEC-OH (disulfide) [Escul 1R, Esculentin 1R, natural disulfide skin peptide of Pelophylax esculentus, esculentin 1 family, 46 aa]",
    "Proteoforms, %, %": 22.15
  }
]

Problem: Entry GXLSTLKNVAKTAGKGALQSLLNAASCKLSGQC-OH (disulfide) [Brev 2L, Brevinin 2L, natural disulfide skin peptide of Pelophylax esculentus, brevinin 2 family, 33 aa] has what Proteoforms, %?
Solution: 4.66

###

Test system: proteases in Pelophylax esculentus skin secretion
Assay type: in vitro ADME
Settings: sample 4: aqueous P. esculentus skin secretion, PMSF 0.1 mM (in DMSO); LC-HRMS; all forms = 100%; one frog per sample
Bridges are numbered along the chain shown (N, C = ends). Where no end group is shown, it is not given here.
Please respond with yes (1) when measured Intact, % is strictly beneath 3%, and with no (0) in all other cases.

Check out these entries, answers already filled in.
[
  {
    "SUBSTANCE": "GXLSTLKNVAKTAGKGALQSLLNAASCKLSGQC-OH (disulfide) [Brev 2L, Brevinin 2L, natural disulfide skin peptide of Pelophylax esculentus, brevinin 2 family, 33 aa]",
    "CLASS LABEL": "yes (1)"
  },
  {
    "SUBSTANCE": "GXLDSLKNLAKNAAQILLNKASCKLSGQC-OH (disulfide) [Brev 2Rd, Brevinin 2Rd, natural disulfide skin peptide of Pelophylax esculentus, brevinin 2 family, 29 aa]",
    "CLASS LABEL": "yes (1)"
  },
  {
    "SUBSTANCE": "GXLDSLKNFAKDAAGILLKKASCKLSGQC-OH (disulfide) [Brev 2Ra, Brevinin 2Ra, natural disulfide skin peptide of Pelophylax esculentus, brevinin 2 family, 29 aa]",
    "CLASS LABEL": "no (0)"
  },
  {
    "SUBSTANCE": "FFPAFLKVAAKVVPSXXCSITKKC-OH (disulfide) [Brev 1LE, Brevinin 1LE, natural disulfide skin peptide of Pelophylax esculentus, brevinin 1 family, 24 aa]",
    "CLASS LABEL": "no (0)"
  },
  {
    "SUBSTANCE": "GXFSKXAGKKXKNLXISGXKSVGKEVGMDVVRTGIDIAGCKIKGEC-OH (disulfide) [Escul 1R, Esculentin 1R, natural disulfide skin peptide of Pelophylax esculentus, esculentin 1 family, 46 aa]",
    "CLASS LABEL": "yes (1)"
  }
]

Here's the next entry for you.
Problem: is_below(Intact, %, 3%) for GIFSKLGRKKIKNLLISGLKNVGKEVGMDVVRTGIDIAGCKIKGEC (disulfide 40-46) [Escul 1, Esculentin 1] ?
Solution: no (0)

###

Tested on: proteases in Pelophylax esculentus skin secretion
Format: in vitro ADME
Settings: sample 2: CH3OH; sum of all proteolytic forms; LC-HRMS; all forms = 100%
QUANTITY KIND: Proteoforms, %

[
  {
    "SUBSTANCE": "GXLDSLKNFAKDAAGILLKKASCKLSGQC-OH (disulfide) [Brev 2Ra, Brevinin 2Ra, natural disulfide skin peptide of Pelophylax esculentus, brevinin 2 family, 29 aa]",
    "VALUE": "did not degrade"
  },
  {
    "SUBSTANCE": "GXLDSLKNLAKNAAQILLNKASCKLSGQC-OH (disulfide) [Brev 2Rd, Brevinin 2Rd, natural disulfide skin peptide of Pelophylax esculentus, brevinin 2 family, 29 aa]",
    "VALUE": "did not degrade"
  }
]

The measured values listed here are drawn from paper PMC11354720.
